Experiment: chemical genetic growth profiling, strain panel (AID 1159580);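 also: tested at 20 µM; growth read once vehicle control cultures reached saturation at 30 °C; lower values mean less growth of the strain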
Details: S. cerevisiae deletion strains, growth OD, locus YDR069C, strain doa4
Out of some 5,500 compounds screened, about 2,000 (36%) were called active. Not shown: some 18% with an inconclusive outcome. Rule as the data show it: active = normalized growth mostly below about 0.91 (no sharp cut-off); inconclusive = no clear call, values can overlap the other calls; inactive = mostly above about 0.92. The list shows a part of the results.
Outcome codes: active, inactive

{"molecule": "CN(C)[C@@H]1C(=O)C(C(N)=O)=C(O)[C@@]2(O)C(=O)C3=C(O)c4c(O)cccc4[C@@](C)(O)[C@H]3[C@H](O)[C@@H]12", "classLabel": "inactive"}
{"molecule": "COc1ccc(C2Sc3ccccc3N(CCN(C)C)C(=O)C2OC(C)=O)cc1 (stereo not drawn)", "classLabel": "inactive"}
{"molecule": "CC(=O)O[C@H]1CCC2(C)C3=C(CCC2C1(C)C)[C@@]1(C)CC[C@@H](C(C)CCC=C(C)C)[C@]1(C)CC3 (stereo partly drawn)", "classLabel": "inactive"}
{"molecule": "COC(=O)/C(=C1\\OC(=O)C(c2ccccc2)=C1O)c1ccccc1", "classLabel": "inactive"}
{"molecule": "CN(C)CCCN1c2ccccc2Sc2ccc(C(F)(F)F)cc21", "classLabel": "active"}
{"molecule": "CC1(C)CC2C1CC[C@]1(CBr)CCC3C(CC(=O)O)C(=O)O[C@@]32C1 (stereo partly drawn)", "classLabel": "inactive"}
{"molecule": "CC(Cc1cccc(C(F)(F)F)c1)NCCOC(=O)c1ccccc1 (stereo not drawn)", "classLabel": "active"}
{"molecule": "CC(C)CCCC(C)[C@H]1CCC2C3CC=C4CC(=O)CC[C@]4(C)C3CC[C@@]21C (stereo partly drawn)", "classLabel": "inactive"}
